Target: PKC theta kinase (Homo sapiens, UniProt Q04759)
Sequence (Q04759 whole entry): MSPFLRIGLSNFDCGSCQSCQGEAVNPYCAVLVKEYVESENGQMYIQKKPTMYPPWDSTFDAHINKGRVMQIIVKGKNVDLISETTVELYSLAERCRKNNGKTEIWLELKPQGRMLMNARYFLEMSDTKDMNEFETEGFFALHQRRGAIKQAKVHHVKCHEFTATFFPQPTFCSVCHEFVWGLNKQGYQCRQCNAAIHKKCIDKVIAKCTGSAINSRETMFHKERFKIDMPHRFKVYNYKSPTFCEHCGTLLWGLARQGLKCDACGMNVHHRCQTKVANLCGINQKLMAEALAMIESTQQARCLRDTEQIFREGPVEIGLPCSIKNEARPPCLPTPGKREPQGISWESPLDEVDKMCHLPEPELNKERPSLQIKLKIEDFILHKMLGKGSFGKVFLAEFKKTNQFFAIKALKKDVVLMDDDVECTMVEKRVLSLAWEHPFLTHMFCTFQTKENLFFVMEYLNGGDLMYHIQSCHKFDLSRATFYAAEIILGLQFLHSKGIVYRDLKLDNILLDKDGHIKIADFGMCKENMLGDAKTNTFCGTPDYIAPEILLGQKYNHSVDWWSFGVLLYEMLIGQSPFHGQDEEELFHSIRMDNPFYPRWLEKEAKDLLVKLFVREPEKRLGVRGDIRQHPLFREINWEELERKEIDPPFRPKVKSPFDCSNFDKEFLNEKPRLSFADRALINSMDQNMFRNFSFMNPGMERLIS
Assay: PKC theta kinase inhibition, coupled-enzyme NADH absorbance assay (Ki)
Format: biochemical
Settings: 240 μM ATP, 18 nM PKC theta, 30° C.; read-out: Ki PKC theta
EXPERIMENTAL_ENDPOINT: Ki

Worked examples follow.
{"MOLECULE": "CC/C=C\\C1(c2cccc(-c3ccnc4[nH]ncc34)c2)CCNC1 (stereo not shown)", "Ki": "< 50 nM"}
{"MOLECULE": "CCc1cc(-c2ccnc3[nH]ncc23)cc(C(C)(CC)CN)c1 (stereo not shown)", "Ki": "< 50 nM"}
{"MOLECULE": "CCC(C#N)(CC)c1cccc(-c2ccnc3[nH]ncc23)c1", "Ki": "< 500 nM"}
{"MOLECULE": "CCC(N)c1cccc(-c2ccnc3[nH]nc(C(F)(F)F)c23)c1 (stereo not shown)", "Ki": "< 50 nM"}
{"MOLECULE": "CCC(O)(c1cc(C)cc(-c2ccnc3[nH]nc(C(F)(F)F)c23)c1)C1CNC1 (stereo not shown)", "Ki": "< 50 nM"}

# lookup: Ki of CCC(C)(C#N)c1cc(/C=C/C#N)cc(-c2ccnc3[nH]ncc23)c1 (stereo not shown)
> 700 nM

I am curious: what Ki value has been reported for "CC(C)(C#N)c1cc(CCCO)cc(-c2ccnc3[nH]ncc23)c1" ?
< 50 nM

Field request: Ki | item: C=CC1(c2cccc(-c3ccnc4[nH]ncc34)c2)CCNC1 (stereo not shown)
< 500 nM

###

Biological target: PKC delta kinase (Homo sapiens, UniProt Q05655)
Sequence (Q05655 whole entry): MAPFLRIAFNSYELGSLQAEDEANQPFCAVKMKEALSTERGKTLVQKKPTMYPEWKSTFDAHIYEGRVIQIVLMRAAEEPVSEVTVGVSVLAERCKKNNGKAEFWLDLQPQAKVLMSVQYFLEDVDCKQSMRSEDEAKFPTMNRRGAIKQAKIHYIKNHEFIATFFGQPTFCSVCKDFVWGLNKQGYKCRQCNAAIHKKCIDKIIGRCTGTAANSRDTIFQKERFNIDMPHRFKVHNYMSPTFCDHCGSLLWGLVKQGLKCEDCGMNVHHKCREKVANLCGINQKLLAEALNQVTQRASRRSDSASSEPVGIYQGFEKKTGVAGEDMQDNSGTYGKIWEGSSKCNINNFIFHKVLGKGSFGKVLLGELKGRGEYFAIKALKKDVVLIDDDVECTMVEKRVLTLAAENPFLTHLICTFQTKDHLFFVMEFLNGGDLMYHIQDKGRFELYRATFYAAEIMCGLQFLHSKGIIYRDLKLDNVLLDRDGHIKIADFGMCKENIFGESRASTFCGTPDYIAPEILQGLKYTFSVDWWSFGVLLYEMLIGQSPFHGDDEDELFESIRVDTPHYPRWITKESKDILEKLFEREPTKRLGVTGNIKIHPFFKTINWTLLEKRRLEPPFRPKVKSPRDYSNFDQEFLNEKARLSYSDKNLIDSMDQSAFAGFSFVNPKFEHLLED
Experiment: PKC delta kinase inhibition, coupled-enzyme NADH absorbance assay (Ki)
Type: biochemical
Conditions: 150 μM ATP, 46 nM PKC delta, 30° C.; read-out: Ki PKC delta
EXPERIMENTAL_ENDPOINT: Ki

{"MOLECULE": "CCCc1cc(-c2ccnc3[nH]ncc23)cc(C2(CCN)CCC2)c1", "OBSERVED_MEASUREMENT": "> 2000 nM"}
{"MOLECULE": "Cc1cc(-c2ccnc3[nH]ncc23)cc(C2(C#N)CCC2)c1", "OBSERVED_MEASUREMENT": "> 2800 nM"}
{"MOLECULE": "COCCC(C)(CN)c1cccc(-c2ccnc3[nH]ncc23)c1 (stereo not drawn)", "OBSERVED_MEASUREMENT": "< 500 nM"}
{"MOLECULE": "NCC1(c2cccc(-c3ccnc4[nH]ncc34)c2)CCC1", "OBSERVED_MEASUREMENT": "< 500 nM"}
{"MOLECULE": "Cc1cc(-c2ccnc3[nH]nc(Cl)c23)cc(C2(CN)CCOCC2)c1", "OBSERVED_MEASUREMENT": "< 500 nM"}

So what Ki did "Cc1cc(-c2ccnc3[nH]nc(C(F)(F)F)c23)cc(C2(CN)CCC2)c1" get with PKC delta kinase (Homo sapiens, UniProt Q05655)?
< 500 nM

Form: Entry = CC#CC1(c2cc(C)cc(-c3ccnc4[nH]nc(C(F)(F)F)c34)c2)CNC(=O)O1 (stereo not drawn) | System = PKC delta kinase (Homo sapiens, UniProt Q05655) | Ki = ____
> 1200 nM

Fill in the recorded Ki for this molecule, with PKC delta kinase (Homo sapiens, UniProt Q05655) as test system: CCC(C)(CN)c1cc(-c2ccnc3[nH]ncc23)cc(C(C)F)c1 (stereo not drawn)
< 2800 nM

Field: Ki (PKC delta kinase (Homo sapiens, UniProt Q05655)). Entry: "NCC1(c2cccc(-c3ccnc4[nH]nc(Cl)c34)c2)CCOCC1"
< 500 nM
